The reported numbers originate from ChEMBL document CHEMBL1136753.

# study target: 3-phosphoinositide-dependent protein kinase 1 (Homo sapiens)
# Sequence (O15530 whole entry): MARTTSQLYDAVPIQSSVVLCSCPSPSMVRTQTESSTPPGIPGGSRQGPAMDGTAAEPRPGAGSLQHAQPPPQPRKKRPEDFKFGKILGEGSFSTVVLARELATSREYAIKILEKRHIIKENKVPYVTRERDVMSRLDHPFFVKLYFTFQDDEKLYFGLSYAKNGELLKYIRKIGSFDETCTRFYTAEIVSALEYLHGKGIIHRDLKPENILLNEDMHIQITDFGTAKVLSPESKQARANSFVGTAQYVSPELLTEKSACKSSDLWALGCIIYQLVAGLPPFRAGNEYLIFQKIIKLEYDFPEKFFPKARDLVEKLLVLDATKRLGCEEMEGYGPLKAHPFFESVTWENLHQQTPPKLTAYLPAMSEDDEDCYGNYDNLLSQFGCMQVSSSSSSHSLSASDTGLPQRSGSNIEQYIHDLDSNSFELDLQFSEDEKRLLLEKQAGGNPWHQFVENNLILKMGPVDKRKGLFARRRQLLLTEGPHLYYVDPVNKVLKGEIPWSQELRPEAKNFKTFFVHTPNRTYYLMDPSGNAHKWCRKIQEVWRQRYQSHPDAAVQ
measured property: IC50

Short answer for CCN(CC)C/C=C/c1nc(O)c2c(ccc3nc(Nc4c(Cl)cccc4Cl)n(C)c32)c1C : IC50 was > 1000 nM

---

# study target: Rho-associated protein kinase 2 (Homo sapiens, UniProt O75116)
# Sequence (O75116 whole entry): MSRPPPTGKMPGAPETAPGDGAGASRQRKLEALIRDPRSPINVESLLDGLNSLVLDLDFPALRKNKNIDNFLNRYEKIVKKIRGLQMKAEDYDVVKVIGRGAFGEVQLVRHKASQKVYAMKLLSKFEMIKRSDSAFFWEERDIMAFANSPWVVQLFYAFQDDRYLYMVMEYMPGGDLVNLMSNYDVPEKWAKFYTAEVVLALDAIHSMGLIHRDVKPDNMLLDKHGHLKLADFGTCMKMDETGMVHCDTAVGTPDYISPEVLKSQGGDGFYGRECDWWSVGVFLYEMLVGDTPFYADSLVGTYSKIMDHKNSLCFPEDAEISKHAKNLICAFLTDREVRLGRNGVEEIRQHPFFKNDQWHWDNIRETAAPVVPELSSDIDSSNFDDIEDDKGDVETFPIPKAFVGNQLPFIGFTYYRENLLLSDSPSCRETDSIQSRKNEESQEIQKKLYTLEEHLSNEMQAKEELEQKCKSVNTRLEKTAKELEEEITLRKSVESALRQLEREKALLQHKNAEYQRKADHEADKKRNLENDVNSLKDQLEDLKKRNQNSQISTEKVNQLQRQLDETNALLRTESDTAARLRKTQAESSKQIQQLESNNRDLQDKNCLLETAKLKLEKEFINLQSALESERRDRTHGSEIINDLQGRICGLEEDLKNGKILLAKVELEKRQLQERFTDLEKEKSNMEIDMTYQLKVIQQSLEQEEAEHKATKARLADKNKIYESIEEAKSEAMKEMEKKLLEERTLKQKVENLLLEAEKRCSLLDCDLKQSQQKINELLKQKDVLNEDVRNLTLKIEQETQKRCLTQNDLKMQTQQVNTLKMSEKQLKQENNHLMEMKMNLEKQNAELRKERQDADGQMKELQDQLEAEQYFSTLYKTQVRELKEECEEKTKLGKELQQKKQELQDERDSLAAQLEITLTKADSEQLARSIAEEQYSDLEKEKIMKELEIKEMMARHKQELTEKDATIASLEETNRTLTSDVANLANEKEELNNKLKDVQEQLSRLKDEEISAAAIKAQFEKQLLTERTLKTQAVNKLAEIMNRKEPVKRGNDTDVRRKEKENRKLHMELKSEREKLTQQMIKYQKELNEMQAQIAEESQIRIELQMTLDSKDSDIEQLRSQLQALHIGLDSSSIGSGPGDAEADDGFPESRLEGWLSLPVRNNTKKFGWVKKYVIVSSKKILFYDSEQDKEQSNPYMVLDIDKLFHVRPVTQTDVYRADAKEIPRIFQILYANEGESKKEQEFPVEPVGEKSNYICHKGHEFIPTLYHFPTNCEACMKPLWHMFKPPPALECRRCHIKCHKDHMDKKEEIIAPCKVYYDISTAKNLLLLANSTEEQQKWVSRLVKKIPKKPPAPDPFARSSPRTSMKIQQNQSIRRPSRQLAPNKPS
measured property: IC50

Short answer for CCN(CC)C/C=C/c1nc(O)c2c(ccc3nc(Nc4c(Cl)cccc4Cl)n(C)c32)c1C : IC50 was > 1000 nM

---

# study target: Ribosomal protein S6 kinase (P70S6K) (Homo sapiens, UniProt P23443+Q9UBS0)
# Sequence (Q9UBS0 whole entry): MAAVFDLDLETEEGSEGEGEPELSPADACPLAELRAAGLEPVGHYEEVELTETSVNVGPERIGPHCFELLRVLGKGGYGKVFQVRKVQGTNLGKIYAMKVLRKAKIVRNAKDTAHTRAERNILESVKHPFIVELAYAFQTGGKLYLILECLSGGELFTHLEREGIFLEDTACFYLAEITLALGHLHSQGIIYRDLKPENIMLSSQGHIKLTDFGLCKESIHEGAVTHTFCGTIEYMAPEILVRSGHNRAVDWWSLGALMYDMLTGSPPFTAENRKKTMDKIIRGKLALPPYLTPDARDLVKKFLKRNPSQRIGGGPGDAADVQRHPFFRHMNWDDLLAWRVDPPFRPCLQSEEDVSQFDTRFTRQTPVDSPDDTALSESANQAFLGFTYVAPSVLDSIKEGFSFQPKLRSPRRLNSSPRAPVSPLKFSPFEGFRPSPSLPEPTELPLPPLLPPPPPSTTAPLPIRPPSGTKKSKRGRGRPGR
# Sequence (P23443 whole entry): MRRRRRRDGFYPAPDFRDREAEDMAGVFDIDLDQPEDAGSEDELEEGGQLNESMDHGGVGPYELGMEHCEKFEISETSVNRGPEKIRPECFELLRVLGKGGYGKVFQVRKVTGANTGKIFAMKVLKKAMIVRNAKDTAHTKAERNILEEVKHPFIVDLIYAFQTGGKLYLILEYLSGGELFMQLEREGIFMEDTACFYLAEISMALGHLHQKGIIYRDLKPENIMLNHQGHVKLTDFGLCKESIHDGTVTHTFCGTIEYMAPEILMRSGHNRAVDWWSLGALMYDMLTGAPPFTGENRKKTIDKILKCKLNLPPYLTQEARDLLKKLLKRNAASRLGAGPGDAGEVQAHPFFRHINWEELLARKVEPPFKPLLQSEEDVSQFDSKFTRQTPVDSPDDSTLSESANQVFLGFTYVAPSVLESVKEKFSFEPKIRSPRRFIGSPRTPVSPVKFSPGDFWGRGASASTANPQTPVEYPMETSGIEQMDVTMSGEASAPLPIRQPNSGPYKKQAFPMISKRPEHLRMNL
# protocol notes: Inhibition of Ribosomal protein S6 kinase (P70S6K kinase)
measured property: IC50

Short answer for CCN(CC)C/C=C/c1nc(O)c2c(ccc3nc(Nc4c(Cl)cccc4Cl)n(C)c32)c1C : IC50 was > 1000 nM
